Items are presented alongside their recorded half-life.
Assay: Stability in liver microsomes
Assay type: in vitro ADME, human
Details: human, microsomes; 2 μM, 37° C.; read-out: half-life (t1/2) in liver microsomes
Where a SMILES comes first, the peptide text is derived from it. [ ]: non-standard residue; d: D form. ξ: configuration not given here. ξαMeBip(2'-Et,4'-OMe) = CCc1cc(OC)ccc1-c1ccc(CC(C)(N)C(=O)O)cc1; ξαMe(hhPhe) = CC(N)(CCCc1ccccc1)C(=O)O; ξαMePhe(2-F) = CC(N)(Cc1ccccc1F)C(=O)O; ξhhPhe = NC(CCCc1ccccc1)C(=O)O; ξαMeS = CC(N)(CO)C(=O)O
Kindly provide the numeric value in h only, without the unit symbol.

{"COMPOUND": "CCc1cc(OC)ccc1-c1ccc(CC(C)(NC(=O)[C@H](CC(=O)O)NC(=O)[C@H](CO)NC(=O)[C@@H](NC(=O)[C@H](Cc2ccccc2)NC(=O)[C@@H](NC(=O)CNC(=O)[C@H](CCC(N)=O)NC(=O)[C@H](CO)NC(=O)[C@H](Cc2c[nH]cn2)NC(=O)[C@@H](NC(=O)[C@@H](N)C(C)C)C(C)C)[C@@H](C)O)[C@@H](C)O)C(=O)NC(CCCc2ccccc2)C(N)=O)cc1 (some centres unmarked) [compound 205] (H-VVHSQGTFTSD[ξαMeBip(2'-Et,4'-OMe)][ξhhPhe]-NH2)", "QUANTITY NAME": "half-life", "OBSERVED MEASUREMENT": 2}

Could you now look at the following compound, please?
Exercise: Recorded half-life for CCc1cc(OC)ccc1-c1ccc(CC(C)(NC(=O)[C@H](CC(=O)O)NC(=O)C(C)(CO)NC(=O)[C@@H](NC(=O)C(C)(Cc2ccccc2F)NC(=O)[C@@H](NC(=O)CNC(=O)[C@H](CCC(N)=O)NC(=O)[C@H](CO)NC(=O)[C@H](Cc2c[nH]cn2)NC(=O)[C@@H](N)C(C)C)[C@@H](C)O)[C@@H](C)O)C(=O)NC(C)(CCCc2ccccc2)C(N)=O)cc1 (some centres unmarked) [compound 165] (H-VHSQGT[ξαMePhe(2-F)]T[ξαMeS]D[ξαMeBip(2'-Et,4'-OMe)][ξαMe(hhPhe)]-NH2) , please?
Solution: 0.5
